Biological target: Cytochrome P450 3A4 (Homo sapiens) (UniProt P08684)
Sequence (P08684 whole entry, looked up): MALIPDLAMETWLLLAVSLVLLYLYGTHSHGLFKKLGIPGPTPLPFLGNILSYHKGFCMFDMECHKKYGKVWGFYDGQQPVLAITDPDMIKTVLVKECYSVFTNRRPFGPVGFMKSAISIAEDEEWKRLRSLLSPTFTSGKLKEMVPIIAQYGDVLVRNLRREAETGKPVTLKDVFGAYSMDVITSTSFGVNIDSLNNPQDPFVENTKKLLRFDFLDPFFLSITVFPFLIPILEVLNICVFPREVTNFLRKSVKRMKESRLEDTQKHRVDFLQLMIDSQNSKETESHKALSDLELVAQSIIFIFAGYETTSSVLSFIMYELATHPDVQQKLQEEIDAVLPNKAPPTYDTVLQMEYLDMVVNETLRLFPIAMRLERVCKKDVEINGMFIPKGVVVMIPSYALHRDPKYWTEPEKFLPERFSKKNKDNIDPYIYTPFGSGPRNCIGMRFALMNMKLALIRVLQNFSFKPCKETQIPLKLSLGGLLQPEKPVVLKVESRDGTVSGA
Test: Cytochrome panel assay with activity outcomes
Conditions: recombinant CYP, pro-luciferin dealkylation, luminescence, p450-cyp3a4; series mostly up to 57.1 µM
Among all 16,000 compounds or so, about 5,100 (32%) were called active. Another 25% or so got no clear call; they are omitted. Calls come from the whole dose curve; as a rule, active = well fitted curve in the direction sought with a large enough effect; inconclusive = small, poorly fitted or top-dose-only effect, or effect the other way; inactive = no such curve, though single readings can be large or run the other way. The list shows a part of the results.
// allowed return values: active, inactive

Q: Write down the call the test reported for this molecule. Item: `CCCc1nnc(NC(=O)Cn2cnc3ccccc3c2=O)s1`
Ans: inactive

Q: Moving on to `CCNc1ncc2nc(-c3cn(C)c4ccccc34)c(=O)n(Cc3cccc(OC)c3)c2n1`
Ans: active

Q: For `CC(C)[C@@H]1NC(=O)[C@H](CCCCN)NC(=O)[C@H](Cc2c[nH]c3ccccc23)NC(=O)[C@H](Cc2ccc(O)cc2)NC(=O)[C@H](C)N(C)C(=O)[C@H](Cc2ccccc2)NC1=O` then?
Ans: active

Q: Similarly, `CCS(=O)(=O)N1CCC(C(=O)NCc2ccc(F)cc2Cl)CC1` ?
Ans: inactive

Q: Moving on to the next molecule: `Cc1ccc(N(CCC#N)C(=O)CSc2ccc3c(c2)OCCO3)cc1`
Ans: active

* * *

Target: Cytochrome P450 3A4 (Homo sapiens)
Test: Cytochrome panel assay with activity outcomes
Conditions: recombinant CYP, pro-luciferin dealkylation, luminescence, p450-cyp3a4; series mostly up to 57.1 µM
The campaign covered roughly 16,000 compounds. About 5,100 (32%) were called active. Another 25% or so got no clear call; they are omitted. Calls follow the shape of the dose curve; as a rule, active = well fitted curve in the direction sought with a large enough effect; inconclusive = small, poorly fitted or top-dose-only effect, or effect the other way; inactive = no such curve, though single readings can be large or run the other way. This is one part of the list.
One label from this list, please: active, inactive

N#Cc1nc(COc2ccccc2Cl)oc1NCc1ccco1 : active
CCCOc1cccc(-c2cc(-c3n[nH]c(=S)n3CC)c3ccccc3n2)c1 : active
Cc1ccccc1OCCNC(=O)c1ccccc1Sc1ccccc1C#N : active

Q: Outcome logged for `CN(C/C=C\c1ccccc1)Cc1cccc2ccccc12` in this assay:
Ans: inactive

Q: Same again, this time with `COc1ccc(NC(=O)c2cc(-c3cccnc3)nc3ccc(C)cc23)cc1OC`
Ans: active

Q: Param item: `CC(=O)c1c(C(C)=O)c(C)n(NC(=O)c2ccncc2)c1C`
Ans: inactive

* * *

Biological target: Cytochrome P450 3A4 (Homo sapiens)
Experiment: Cytochrome panel assay with activity outcomes; for activity, negative = inhibition: % is set by controls: 0 for no effect and ±100 for the full control effect
Settings: recombinant CYP, pro-luciferin dealkylation, luminescence, p450-cyp3a4; series mostly up to 57.1 µM
About 5,100 (32%) of roughly 16,000 compounds were called active. About 25% were inconclusive and are not listed. The list shows a part of the results.
readout-label: activity, negative = inhibition

# count of solved cases: 5
CCN(CC)CC#CCC(C)(c1ccccc1)c1ccccc1 : -27.1% [at 2.29 µM] (inactive)
CCOC(=O)c1ccc(Cl)c(NC(=O)c2ccc(-c3ccccc3)cc2)c1 : 6.61% [at 11.4 µM] (inactive)
O=C(O)CCC(O)=C1S(=O)(=O)OCCOS1(=O)=O : 2.08% [at 11.4 µM] (inactive)
O=C(CCN1CCCCC1)c1csc2ccccc12 : -13.8% [at 11.4 µM] (inactive)
CCCS(=O)(=O)N1CCCC(C(=O)NCCN2CCOCC2)C1 (configuration not stated) : 0.644% [at 11.4 µM] (inactive)

Proceed to the following item.
Q: Return reported activity, negative = inhibition; argument: `CC(C)(C[C@@]1(C)NC(=O)NC1=O)OCc1ccccc1`
Ans: -6.17% [at 11.4 µM] (inactive)

Reference source for all entries: PubChem BioAssay AID1851
